Species on record: Homo sapiens
Assay: Thermal stabilization of human NRAS G-quadruplex FAM-GGGAGGGGCGGGUCUGGG-TAMRA RNA assessed as melting temperature at 1:1 DNA:ligand ratio by FRET assay
Quick list: Tm per entry.
Field format: number, assumed °C, no unit text.

Below: 3 molecules and their reported Tm.
- chemical_smiles: "N=C(N)NCCCNc1c2c(c(NCCCNC(=N)N)c3sccc13)C(=O)c1ccccc1C2=O"
  recorded_measurement: 88
- chemical_smiles: "N=C(N)NCCNc1c2c(c(NCCNC(=N)N)c3sccc13)C(=O)c1ccccc1C2=O"
  recorded_measurement: 82
- chemical_smiles: "N=C(N)NCCCNc1c2c(c(NCCNC(=N)N)c3sccc13)C(=O)c1ccccc1C2=O"
  recorded_measurement: 88

For `N=C(N)NCCCNc1c2c(c(NCCNC(=N)N)c3ccsc13)C(=O)c1ccccc1C2=O` the molecule record lists Tm as 86
